Type: physicochemical
Conditions: pH 4.4
Where no end group is shown, it is not given here.

{"Substance": "RLKWVRIWRR-NH2 [RiLK1, RLKWVRIWRR]", "solubility, µM": 900}

###

Assay: physchem
Assay type: physicochemical
Details: pH 7.1, Solubility limit
Where a SMILES comes first, the peptide text is derived from it.
Recorded Endpoint: solubility (µg/mL)

{"Compound": "CC[C@@H](C)[C@@H](NC(=O)[C@@H](CCCNC(=N)N)NC(=O)[C@H](NC(=O)[C@@H](Cc1c[nH]c2ccccc12)NC(=O)[C@@H](CCCCN)NC(=O)[C@@H](CC(C)C)NC(=O)[C@H](N)CCCNC(=N)N)C(C)C)C(=O)N[C@H](Cc1c[nH]c2ccccc12)C(=O)N[C@H](CCCNC(=N)N)C(=O)N[C@H](CCCNC(=N)N)C(N)=O [RiLK1(D), RLKWVRIWRR] (HELM PEPTIDE1{[dR].[dL].[dK].[dW].[dV].[dR].[dI].[dW].[dR].[dR].[am]}$$$$V2.0; N-terminus assumed)", "Reported": 10000}

###

Experiment: physchem
Type: physicochemical
Details: Solubility limit
Where a SMILES comes first, the peptide text is derived from it.
Recorded Endpoint: solubility

{"Compound": "CC[C@@H](C)[C@@H](NC(=O)[C@@H](CCCNC(=N)N)NC(=O)[C@H](NC(=O)[C@@H](Cc1c[nH]c2ccccc12)NC(=O)[C@@H](CCCCN)NC(=O)[C@@H](CC(C)C)NC(=O)[C@H](N)CCCNC(=N)N)C(C)C)C(=O)N[C@H](Cc1c[nH]c2ccccc12)C(=O)N[C@H](CCCNC(=N)N)C(=O)N[C@H](CCCNC(=N)N)C(N)=O [RiLK1(D), RLKWVRIWRR] (HELM PEPTIDE1{[dR].[dL].[dK].[dW].[dV].[dR].[dI].[dW].[dR].[dR].[am]}$$$$V2.0; N-terminus assumed)", "Reported": "10000 µg/mL"}

Reference source for all entries: patent US20260234187A1
